Quick reference for MIC among some molecules
- Tested on: Pseudomonas aeruginosa
- TEST_SUMMARY: Antimicrobial activity against Pseudomonas aeruginosa H187 by broth microdilution method
- Assay type: functional

MOLECULE	RESULT
Cc1cc(O)c2c(c1)[C@@H]1OC(=O)[C@@H](CO)N1C1=C2C(=O)c2cccc(O[C@H]3C[C@@H](O)[C@@H](O)[C@H](C)O3)c2C1=O [JADOMYCIN DS]	> 128 µg/mL
Cc1cc(O)c2c(c1)[C@@H]1OC(=O)[C@H](CC(C)C)N1C1=C2C(=O)c2cccc(O[C@H]3C[C@@H](O)[C@@H](O)[C@H](C)O3)c2C1=O [JADOMYCIN L]	> 128 µg/mL
CC[C@H](C)[C@H]1C(=O)O[C@H]2c3cc(C)cc(O)c3C3=C(C(=O)c4c(O[C@H]5C[C@@H](O)[C@@H](O)[C@H](C)O5)cccc4C3=O)N12 [JADOMYCIN B]	> 128 µg/mL
Cc1cc(O)c2c(c1)[C@@H]1OC(=O)[C@@H]([C@H](C)O)N1C1=C2C(=O)c2cccc(O[C@H]3C[C@@H](O)[C@@H](O)[C@H](C)O3)c2C1=O [JADOMYCIN DT]	> 128 µg/mL

// MIC lookup, molecule = Cc1cc(O)c2c(c1)[C@@H]1OC(=O)[C@H](Cc3ccc(O)cc3)N1C1=C2C(=O)c2cccc(O[C@H]3C[C@@H](O)[C@@H](O)[C@H](C)O3)c2C1=O [JADOMYCIN Y] , result: > 128 µg/mL
